// IC50 lookup, one value per entry
assayTarget: human serotonin transporter (Homo sapiens, UniProt P31645)
Sequence (P31645 whole entry): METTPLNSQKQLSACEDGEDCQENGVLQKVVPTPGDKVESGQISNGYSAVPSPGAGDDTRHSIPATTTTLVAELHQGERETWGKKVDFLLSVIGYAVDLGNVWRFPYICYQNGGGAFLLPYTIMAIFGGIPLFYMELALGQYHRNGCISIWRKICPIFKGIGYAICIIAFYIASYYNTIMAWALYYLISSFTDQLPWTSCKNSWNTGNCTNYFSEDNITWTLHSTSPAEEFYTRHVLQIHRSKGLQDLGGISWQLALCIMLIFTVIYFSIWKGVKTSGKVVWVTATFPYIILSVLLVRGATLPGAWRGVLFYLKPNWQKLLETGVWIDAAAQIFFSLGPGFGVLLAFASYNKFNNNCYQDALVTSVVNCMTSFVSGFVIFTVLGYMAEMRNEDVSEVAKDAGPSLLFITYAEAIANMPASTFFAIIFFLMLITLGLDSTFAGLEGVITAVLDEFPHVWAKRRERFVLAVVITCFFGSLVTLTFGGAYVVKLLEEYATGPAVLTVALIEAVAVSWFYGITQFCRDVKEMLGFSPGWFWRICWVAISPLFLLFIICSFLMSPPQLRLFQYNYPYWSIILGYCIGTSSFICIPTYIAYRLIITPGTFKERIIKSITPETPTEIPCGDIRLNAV
Counter-ions that a name gives are not always drawn.
Reply with just the number (in nM).

Would you please look over these solved cases?
INSERT INTO results (compound, reportedproperty, measvalue) VALUES
  ('O=C(NCCCN1CCN(c2cccc(Cl)c2Cl)CC1)c1c[nH]c(-c2ccccc2)c1', 'IC50', 54),
  ('CCCn1c(-c2ccccc2)cc(C(=O)NCCCN2CCN(c3cccc(Cl)c3)CC2)c1C', 'IC50', 93),
  ('CCCn1c(-c2ccccn2)cc(C(=O)NCCN2CCN(c3cccc(Cl)c3Cl)CC2)c1C [Example 96, dihydrochloride]', 'IC50', 381),
  ('Cc1cccc(N2CCN(CCCNC(=O)c3cc(-c4ccccc4)n(CC4CCCCC4)c3C)CC2)c1C', 'IC50', 352);

Report its IC50 with human serotonin transporter (Homo sapiens, UniProt P31645) as the test system: CCCn1c(-c2ccccc2)cc(C(=O)NCCCN2CCN(c3cccc(OC)c3OC)CC2)c1C
1980

Retrieve IC50 on human serotonin transporter (Homo sapiens, UniProt P31645); query CCn1c(-c2ccccc2)cc(C(=O)NCCCCN2CCN(c3cccc(C)c3C)CC2)c1C [Example 42, hydrochloride]
65

Report IC50 on human serotonin transporter (Homo sapiens, UniProt P31645) for this entry: CCn1c(C)c(C(=O)NCCCN2CCN(c3cccc(Cl)c3Cl)CC2)c(C)c1-c1ccccc1 [Example 80, hydrochloride]
97

Report measured IC50 on human serotonin transporter (Homo sapiens, UniProt P31645); entry: CCCn1c(-c2cccnc2)cc(C(=O)NCCCN2CCN(c3cccc(Cl)c3Cl)CC2)c1C
133

Answer briefly: IC50 recorded on human serotonin transporter (Homo sapiens, UniProt P31645) for CCCn1c(-c2ccccc2)cc(C(=O)NCCCN2CCN(c3ccccc3C#N)CC2)c1C [Example 90, hydrochloride]
223

Report IC50 from human serotonin transporter (Homo sapiens, UniProt P31645) testing of CCCn1c(-c2ccccc2)cc(C(=O)NCCCCN2CCN(c3cccc(Cl)c3Cl)CC2)c1C [Example 34, hydrochloride]
76

Give IC50 for CCCn1c(-c2ccccc2)cc(C(=O)NCCCN2CCN(c3ccccc3Br)CC2)c1C tested on human serotonin transporter (Homo sapiens, UniProt P31645).
225

Find IC50 for Cc1c(C(=O)NCCCN2CCN(c3cccc(Cl)c3)CC2)cc(-c2ccccc2)n1-c1ccc(F)cc1 on human serotonin transporter (Homo sapiens, UniProt P31645) and write it down.
80.2

Param request: IC50 | system human serotonin transporter (Homo sapiens, UniProt P31645) | item CCCCc1cc(C(=O)NCCCN2CCN(c3cccc(Cl)c3Cl)CC2)c(C)n1C
334

# assay system human serotonin transporter (Homo sapiens, UniProt P31645): give IC50 of Cc1cccc(N2CCN(CCCNC(=O)c3cc(-c4ccccc4)n(C)c3C)CC2)c1C
11.8

###

Property: IC50; scope: individual compounds
assayTarget: human recombinant serotonin 5-HT2A receptor (Homo sapiens, UniProt P28223)
Sequence (P28223 whole entry): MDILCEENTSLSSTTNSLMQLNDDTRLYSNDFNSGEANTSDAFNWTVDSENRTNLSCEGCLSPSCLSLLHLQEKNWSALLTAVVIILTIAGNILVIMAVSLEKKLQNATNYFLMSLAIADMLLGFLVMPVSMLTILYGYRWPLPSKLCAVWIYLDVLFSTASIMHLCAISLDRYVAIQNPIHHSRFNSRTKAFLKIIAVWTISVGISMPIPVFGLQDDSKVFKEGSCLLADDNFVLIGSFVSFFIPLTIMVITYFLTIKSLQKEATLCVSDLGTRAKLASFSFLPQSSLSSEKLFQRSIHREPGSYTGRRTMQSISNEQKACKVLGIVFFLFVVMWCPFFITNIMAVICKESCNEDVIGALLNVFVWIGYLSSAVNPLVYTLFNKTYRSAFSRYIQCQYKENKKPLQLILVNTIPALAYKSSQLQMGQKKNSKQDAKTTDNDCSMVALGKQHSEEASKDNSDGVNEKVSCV
assayComment: Binding affinity for serotonin 5-HT2A receptor ([3H]Ketanserin)
measurementSetup: CHO-K1 expressed receptor, 1 nM [3H]Ketanserin
Where a name gives a salt, the structure may show the parent alone.
Write the answer as a number in nM, unit excluded.

Before answering, review these 5 worked examples.
INSERT INTO measurements (compound, measvalue) VALUES
  ('Cc1cccc(N2CCN(CCCNC(=O)c3cc(-c4ccccc4)n(CC4CCCCC4)c3C)CC2)c1C [Example 21]', 1230),
  ('C=CCCc1cc(C(=O)NCCCN2CCN(c3cccc(Cl)c3Cl)CC2)c(C)[nH]1 [Example 135]', 65),
  ('C=CCCc1cc(C(=O)NCCCN2CCN(c3cccc(Cl)c3Cl)CC2)c(C)n1C [Example 136]', 108),
  ('CCn1c(-c2ccccc2)cc(C(=O)NCCCCN2CCN(c3cccc(C)c3C)CC2)c1C [Example 42, hydrochloride]', 10),
  ('CCCCc1cc(C(=O)NCCCN2CCN(c3cccc(Cl)c3Cl)CC2)c(C)n1C [Example 138]', 134);

Please report IC50 for the following compound: Cc1c(C(=O)NCCCN2CCN(c3cccc(Cl)c3Cl)CC2)cc(C(C)(C)C)n1C [Example 128]
163

Return reported IC50. Input compound: CCn1c(-c2ccccc2)cc(C(=O)NCCCN2CCN(c3cccc(Cl)c3)CC2)c1C [Example 4]
92

Query IC50 for Cc1c(Cl)cccc1N1CCN(CCNC(=O)c2cc(-c3ccccc3)n(C)c2C)CC1 [Example 184]
152

###

assayTarget: human recombinant 5-HT2C receptor (Homo sapiens, UniProt P28335)
Construct: purchased PerkinElmer
Sequence (P28335 33-458): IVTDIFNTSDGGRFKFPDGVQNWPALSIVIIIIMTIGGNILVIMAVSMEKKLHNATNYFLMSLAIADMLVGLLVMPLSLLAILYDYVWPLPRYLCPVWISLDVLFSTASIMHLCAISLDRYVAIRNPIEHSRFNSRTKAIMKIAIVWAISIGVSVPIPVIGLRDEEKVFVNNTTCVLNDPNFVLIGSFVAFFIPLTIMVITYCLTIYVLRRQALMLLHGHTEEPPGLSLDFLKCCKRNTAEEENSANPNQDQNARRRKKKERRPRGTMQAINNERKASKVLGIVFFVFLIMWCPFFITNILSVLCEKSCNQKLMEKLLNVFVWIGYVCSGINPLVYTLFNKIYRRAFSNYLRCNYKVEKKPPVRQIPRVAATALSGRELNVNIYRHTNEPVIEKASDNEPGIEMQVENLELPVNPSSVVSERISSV
assayComment: Binding affinity for serotonin 5-HT2C receptor ([3H]Mesulergine)
measurementSetup: CHO-K1 membranes, 1.3 nM [3H]Mesulergine
pIC50: −log10 of the molar value. Structures can show the parent of a compound that is named as a salt.
Kindly return yes (1) if reported pIC50 is no lower than 7; return no (0) if it is lower.

These recorded examples may help you get a feel for the data.
INSERT INTO results (compound, label) VALUES
  ('CCCn1c(-c2ccc(Cl)cc2)cc(C(=O)NCCCN2CCN(c3cccc(Cl)c3Cl)CC2)c1C [Example 66, hydrochloride]', 'yes (1)'),
  ('CCCn1c(-c2ccccc2)cc(C(=O)NCCCCN2CCN(c3cccc(Cl)c3Cl)CC2)c1C [Example 34, hydrochloride]', 'yes (1)'),
  ('CCn1c(-c2ccc(OC)cc2)cc(C(=O)NCCCN2CCN(c3cccc(Cl)c3Cl)CC2)c1C [Example 75, hydrochloride]', 'yes (1)');

Could you now consider this next compound?
Decide: is the reported value of pIC50 for CCCn1c(-c2ccccc2)cc(C(=O)NCCCN2CCN(c3ccc(OC)cc3)CC2)c1C [Example 87, dihydrochloride] equal to or greater than 7?
no (0)

###

Below, each entry is listed with its recorded IC50.
assayTarget: human recombinant 5-HT2C receptor (Homo sapiens, UniProt P28335)
assayComment: Binding affinity for serotonin 5-HT2C receptor ([3H]Mesulergine)
measurementSetup: CHO-K1 membranes, 1.3 nM [3H]Mesulergine
Counter-ions that a name gives are not always drawn.
Could you write the number and then its unit?

# annotated cases, reported IC50 shown
INSERT INTO measurements (compound, reportedproperty, measvalue) VALUES
  ('Cc1c(C(=O)N(C)CCCN2CCN(c3cccc(Cl)c3Cl)CC2)cc(-c2ccccc2)n1C [Example 37, hydrochloride]', 'IC50', '0.0345 µM'),
  ('CCCCc1cc(C(=O)NCCCN2CCN(c3cccc(Cl)c3Cl)CC2)c(C)[nH]1 [Example 137]', 'IC50', '0.133 µM'),
  ('CCCn1c(-c2ccccc2)cc(C(=O)N(C)CCCN2CCN(c3cccc(Cl)c3Cl)CC2)c1C [Example 31, hydrochloride]', 'IC50', '0.0207 µM'),
  ('CCn1c(-c2ccccc2)cc(C(=O)NCCCN2CCN(c3cccc(Cl)c3)CC2)c1C [Example 4]', 'IC50', '0.192 µM');

Identify measured IC50 corresponding to CCCn1c(-c2ccccn2)cc(C(=O)NCCN2CCN(c3cccc(Cl)c3Cl)CC2)c1C [Example 96, dihydrochloride]
0.619 µM

Provide one value: measured IC50 of Cc1c(C(=O)NCCCN2CCN(c3cccc(Cl)c3Cl)CC2)cc(-c2ccc(Cl)cc2)n1C [Example 62, hydrochloride]
0.039 µM

For the compound Cc1[nH]c(-c2ccccn2)cc1C(=O)NCCCN1CCN(c2cccc(Cl)c2Cl)CC1 [Example 91, dihydrochloride] , give its measured IC50 value.
0.211 µM

###

assayTarget: human recombinant serotonin 5-HT2A receptor (Homo sapiens)
assayComment: Binding affinity for serotonin 5-HT2A receptor ([3H]Ketanserin)
measurementSetup: CHO-K1 expressed receptor, 1 nM [3H]Ketanserin
Counter-ions that a name gives are not always drawn.
Measured IC50 values are reported for all entries that follow.

INSERT INTO measurements (molecule, measvalue) VALUES
  ('CCCn1c(-c2ccccc2)cc(C(=O)NCCCN2CCN(c3ccc(OC)cc3)CC2)c1C [Example 87, dihydrochloride]', '0.647 µM');

# context switch: different molecule, same IC50
For the molecule Cc1[nH]c(-c2ccccc2)c(C)c1C(=O)NCCN1CCN(c2cccc(Cl)c2Cl)CC1 [Example 76, hydrochloride] , report IC50.
0.037 µM

###

assayTarget: human serotonin transporter (Homo sapiens)
pIC50: −log10 of the molar value. Structures can show the parent of a compound that is named as a salt.
Classify as follows. Reported pIC50 greater than or equal to 7: label 1. Reported pIC50 below: label 0.

INSERT INTO results (molecule, label) VALUES
  ('Cc1c(C(=O)NCCCN2CCN(c3cccc(Cl)c3Cl)CC2)cc(C(C)(C)C)n1C', 'label 0'),
  ('CCCn1c(-c2ccccn2)cc(C(=O)NCCCN2CCN(c3cccc(Cl)c3Cl)CC2)c1C [Example 93, dihydrochloride]', 'label 0'),
  ('CCCn1c(-c2ccccc2)cc(C(=O)NCCCN2CCN(c3ccc(OC)cc3)CC2)c1C [Example 87, dihydrochloride]', 'label 0'),
  ('Cc1c(C(=O)NCCCN2CCN(c3cccc(Cl)c3Cl)CC2)cc(-c2ccccc2)n1CC(C)C', 'label 0'),
  ('Cc1cccc(N2CCN(CCCNC(=O)c3cc(-c4ccccc4)n(-c4ccc(F)cc4)c3C)CC2)c1C', 'label 1'),
  ('Cc1c(C(=O)NCCCN2CCN(c3cccc(Cl)c3Cl)CC2)cc(-c2ccccc2)n1CC1CCCCC1', 'label 0');

# ---- query molecule ----
# check: pIC50 of Cc1cccc(N2CCN(CCCNC(=O)c3cc(-c4ccc(Cl)cc4)[nH]c3C)CC2)c1C [Example 44, hydrochloride] is greater than or equal to 7
label 1
